The origin of these recorded values is patent US20240327502A1.

- system: T1, hMPV PostF trimer (human metapneumovirus, strain B2)
- T1 construct: also called MPV PostF (dPFv1)
- test name: BLI, mAb on anti-human Fc sensor
Give Octet binding response for every item shown.
Units required after the number.

Example binders with recorded Octet binding response:
binder: M3B04 (antibody, V domains shown, IgG) VH: QVQLQESGPGLVKPSETVSLTCTVSGGSISSNNWWSWVRQSPGKGLEWIGEIYHSGSTNFNPSLKSRVTISVDKSKNHFSLKLGSLTAADTAVYYCARRPNDYGDYSYYYYYYMDVWGKGTTVTVSS VL: EIVLTQSPATLSLSPGESATLSCRASQSINRNLAWYQQKPGQAPRLLIYDASNRATGIPARFSGSGSGTDFTLTISSLEPEDFAVYYCQQRSHWVTFGQGTRLEIK
Octet binding response: 0.446 nm
--
binder: M2C11 (antibody, V domains shown, IgG) VH: QVQLVQSGAEVRKPGASVKVSCKASGYTFTSHDINWVRQAPGQGLEWMGWMNPNSDTTGYAQKFQGRVTMARDISMSTAYMELSSLTSEDTAVYYCARGRHNYYTNGPTRDGFDIWGQGTMVTVSS VL: SYELTQPPSVSVSPGQTATITCSGDDLGNQYANWFQQRPGQSPVLVIYQDNKRPSGIPERFSGSSSGNTATLTISGTQPLDEADYYCQAWDSRTYVFGTGTKVTVL
Octet binding response: -0.03 nm

API: the following record is the query input.
QUERY: Look at this binder and give its reported Octet binding response. M3A01 (antibody, V domains shown, IgG) VH: EVQLVESGGGLVKPGGSLRLSCSVSAFSISGYNMHWVRQAPGKGLEWVSSITGGSNYINYADSVKGRFTISRDNAQNSLYLQMKSLRAEDTAVYYCARETQPSPGSFDSWGQGTLVTVSS VL: QSVLTQPPSVSGAPGQRVTISCTGSSSNIGAGYDVNWYQQLPGTAPKLLIYGNYNRPSGVPDRFSASKSGTSASLAITGLQAEDEADYWCQSYDTSLSGWIFGGGTKLTVL
RESULT: -0.062 nm
